Quick list: activity change, negative = cytotoxicity per entry.
Assay: Nuclear factor erythroid 2-related factor 2/antioxidant responsive element (Nrf2/ARE) small molecule agonists: qHTS cell viability counter screen in human keratinocytes (AID 1919968); further: on the % scale 0 is the no-effect control and ±100 the full control effect; nearly all actives have a fitted effect of over 55% in size
Conditions: KeratinoSens HaCaT ARE cells viability, CellTiter-Fluor, 24 h; series mostly up to 92.4 µM
Results filed as inconclusive are left out. Activity calls are given as the source filed them. The call rests on the fitted dose curve; in most records, active means well fitted cell-killing curve with a large enough effect in the repeat runs; inconclusive means weak or mixed curves, or effect the other way; inactive means flat fitted curve, though single readings scatter.

# Compound Structure String, activity change, negative = cytotoxicity
rows = [
    ("NC[C@H]1O[C@H](O[C@H]2[C@H](O)[C@@H](O[C@H]3O[C@H](CO)[C@@H](O)[C@H](N)[C@H]3O)[C@H](N)C[C@@H]2N)[C@H](N)[C@@H](O)[C@@H]1O", "-0.0182% [at 19 µM] (inactive)"),
]

Param item = CC1=CC[C@@H]2C[C@H]1C2(C)C ; retrieve measured activity change, negative = cytotoxicity. -0.0198% [at 19 µM] (inactive)

Same for CC(C)(C)CC(C)(C)c1ccc(Nc2ccc(C(C)(C)CC(C)(C)C)cc2)cc1 0.0348% [at 8.39 µM] (inactive)

Same for CCCCCCCC/C=C\CCCCCCCC(=O)OCCCC 4.3% [at 19 µM] (inactive)

Same for NC(=S)Nc1cccc2ccccc12 -1.52% [at 8.39 µM] (inactive)

Same for COC(=O)c1ccc2cc(C(=O)OC)ccc2c1 1.05% [at 19 µM] (inactive)

Same for C=CCCCCCCCCCCC -0.936% [at 8.39 µM] (inactive)

Same for O=S(=O)(O)c1ccc2c(N=Nc3ccc(S(=O)(=O)O)c4ccccc34)c(O)c(S(=O)(=O)O)cc2c1 -5.59% [at 8.39 µM] (inactive)

Same for O=C(O)CN(CCCN(CC(=O)O)CC(=O)O)CC(=O)O -0.241% [at 19 µM] (inactive)

Same for CCCCCCCCCCCCCCCCBr 3.53% [at 19 µM] (inactive)

Same for C[Si](C)=O 4.07% [at 8.39 µM] (inactive)

Same for N[C@H](C(=O)O)c1ccc(O)cc1 7.62% [at 19 µM] (inactive)

Same for O=C(O)Cc1cccc(-c2cc(CCCCCCc3ccc(O[C@H]4O[C@H](CO)[C@@H](O)[C@H](O)[C@@H]4O)c(-c4cccc(CC(=O)O)c4)c3)ccc2O[C@H]2O[C@H](CO)[C@@H](O)[C@H](O)[C@@H]2O)c1 -1.5% [at 0.349 µM] (inactive)

Same for Nc1c(NC/C=C\COc2cc(CN3CCCCC3)ccn2)c(=O)c1=O 1.77% [at 19 µM] (inactive)

---

Molecular target: 5-hydroxytryptamine receptor 2A (Homo sapiens)
Experiment: 5-hydroxytryptamine receptor 2A (HTR2A) small molecule agonists, cell-based qHTS assay (AID 1963587); further: potency means the concentration at half of the fitted maximal effect; nearly all actives have a fitted effect of over 30% in size
Conditions: HTR2A-CHO cells, calcium flux fluorescence, agonist mode; series mostly up to 76.8 µM
Inconclusive results are not listed. Active and inactive are the calls of the source. Calls come from the whole dose curve.
Observed Property: Potency

These recorded examples may help you get a feel for the data.
# Molecule, Observed Property, Result
data = [
    ("CC(C)(c1cc(Br)c(O)c(Br)c1)c1cc(Br)c(O)c(Br)c1", "Potency", "48.8 µM (active)"),
    ("CCN1CCCC(OC(=O)C(c2ccccc2)c2ccccc2)C1 (stereo not given)", "Potency", "0.0756 µM (active)"),
]

Form field - read-out: Potency; system: 5-hydroxytryptamine receptor 2A (Homo sapiens); submitted item: OC1CCCCCCCCCCC1 6.23 µM (active)

Same for O=C1NC(=O)[C@@]2(CCOc3ccc(F)cc32)N1 3.01 µM (active)

Same for CCC(C(=O)OCCOCCN(CC)CC)c1ccccc1 (stereo not given) 2.68 µM (active)

---

Molecular target: 5-hydroxytryptamine receptor 2A (Homo sapiens) (UniProt P28223)
Sequence (P28223 whole entry, looked up): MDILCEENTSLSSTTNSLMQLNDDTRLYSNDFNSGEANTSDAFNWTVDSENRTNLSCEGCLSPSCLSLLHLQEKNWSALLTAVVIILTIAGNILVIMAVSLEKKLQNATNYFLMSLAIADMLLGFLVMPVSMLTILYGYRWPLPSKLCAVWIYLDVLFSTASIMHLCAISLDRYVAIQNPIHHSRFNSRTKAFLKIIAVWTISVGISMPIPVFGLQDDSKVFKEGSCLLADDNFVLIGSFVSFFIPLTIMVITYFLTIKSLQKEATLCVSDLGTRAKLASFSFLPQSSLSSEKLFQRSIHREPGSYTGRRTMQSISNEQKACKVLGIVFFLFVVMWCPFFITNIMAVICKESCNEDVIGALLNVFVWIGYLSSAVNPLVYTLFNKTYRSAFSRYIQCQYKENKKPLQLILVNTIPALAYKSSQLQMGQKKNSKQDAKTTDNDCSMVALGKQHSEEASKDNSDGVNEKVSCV
Experiment: 5-hydroxytryptamine receptor 2A (HTR2A) small molecule antagonists, cell-based qHTS assay (AID 1963586); further: on the % scale 0 is the no-effect control and ±100 the full control effect; nearly all actives have a fitted effect of over 45% in size
Settings: HTR2A-CHO cells, DOI-induced calcium flux, fluorescence; series mostly up to 61.5 µM
Records with an inconclusive call do not appear. The source made the active and inactive calls. Calls follow the shape of the full dose curve.
Observed Property: activity, negative = inhibition

These recorded examples may help you get a feel for the data.
# Molecule, Target Or System, Result
rows = [
    ("OCCCC1CCCCC1", "5-hydroxytryptamine receptor 2A (Homo sapiens) (UniProt P28223)", "inactive"),
    ("CCOc1ccc(Cc2nccc3cc(OCC)c(OCC)cc23)cc1OCC", "5-hydroxytryptamine receptor 2A (Homo sapiens) (UniProt P28223)", "inactive"),
    ("COc1cc(C(=O)NCc2ccc(OCCN(C)C)cc2)cc(OC)c1OC", "5-hydroxytryptamine receptor 2A (Homo sapiens) (UniProt P28223)", "inactive"),
    ("Nc1c(NC/C=C\\COc2cc(CN3CCCCC3)ccn2)c(=O)c1=O", "5-hydroxytryptamine receptor 2A (Homo sapiens) (UniProt P28223)", "-23.4% [at 12.7 µM] (inactive)"),
    ("CC(COC(=O)c1ccccc1)OC(=O)c1ccccc1 (stereo not drawn)", "5-hydroxytryptamine receptor 2A (Homo sapiens) (UniProt P28223)", "inactive"),
]

Param item = COC(CC(C)CCCC(C)(C)O)OC (stereo not drawn) ; retrieve measured activity, negative = inhibition. inactive

Same for CC(=O)OCC(=O)Nc1cc(C#N)cc(NC(=O)COC(C)=O)c1Cl inactive

Same for CCC(C)C1CCCCC1=O (stereo not drawn) inactive

Same for Nc1c2ccccc2nc2ccccc12 inactive

Same for CC1=CC(=O)[C@H]2C[C@@H]1C2(C)C inactive

Same for O=C1C(c2[nH]c3ccc(S(=O)(=O)O)cc3c2O)=Nc2ccc(S(=O)(=O)O)cc21 inactive

Same for CC(C)CNCC(C)C inactive

Same for CN(C)Cc1ccccc1O inactive

Same for COC(=O)/C=C/c1ccccc1 inactive

Same for COC(=O)Nc1ccc(Cl)c(Cl)c1 inactive

Same for O=Cc1ccc(Cl)cc1 inactive

Same for NC(=O)Nc1ccc(Cl)cc1 inactive

Same for CCCC(=O)Nc1ccc(O)c(C(C)=O)c1 inactive

Same for O=S(=O)(O)CCN1CCN(CCO)CC1 inactive

---

Molecular target: D(2) dopamine receptor (Homo sapiens) (UniProt P14416)
Sequence (P14416 whole entry, looked up): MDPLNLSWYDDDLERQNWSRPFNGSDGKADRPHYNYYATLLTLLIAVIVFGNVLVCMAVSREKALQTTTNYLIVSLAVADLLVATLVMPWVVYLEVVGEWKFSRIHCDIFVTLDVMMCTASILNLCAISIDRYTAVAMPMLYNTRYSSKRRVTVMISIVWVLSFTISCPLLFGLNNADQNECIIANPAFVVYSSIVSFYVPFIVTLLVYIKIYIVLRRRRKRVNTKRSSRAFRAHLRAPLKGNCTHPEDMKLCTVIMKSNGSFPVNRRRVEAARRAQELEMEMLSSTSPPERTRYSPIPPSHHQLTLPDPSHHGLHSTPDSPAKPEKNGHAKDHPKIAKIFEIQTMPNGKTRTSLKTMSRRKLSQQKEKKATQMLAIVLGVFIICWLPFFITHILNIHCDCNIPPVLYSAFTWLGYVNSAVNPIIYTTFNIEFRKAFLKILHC
Assay: Dopamine D2 receptor (DRD2) small molecule antagonists, cell-based qHTS assay (AID 1963595); further: on the % scale 0 is the no-effect control and ±100 the full control effect
Settings: HEK293-DRD2 cAMP HTRF antagonist mode; series mostly up to 92.4 µM
Results filed as inconclusive are left out. Activity calls are given as the source filed them. Calls come from the whole dose curve; as a rule, active = well fitted inhibition curve with a large enough effect in the signal ratio in the repeat runs, with a control signal flat; inconclusive = weak or mixed curves, or effect the other way; inactive = flat fitted curve, though single readings scatter; the % refers to the signal ratio.
Observed Property: activity change, negative = inhibition

These recorded examples may help you get a feel for the data.
# Compound Structure String, activity change, negative = inhibition
records = [
    ("CC(C)CCCO", "inactive"),
    ("CCCCc1ncc(/C=C(\\Cc2cccs2)C(=O)O)n1Cc1ccc(C(=O)O)cc1", "inactive"),
    ("C=CCCCCCCCC", "inactive"),
    ("Cc1c(N)cccc1C(F)(F)F", "inactive"),
    ("Cn1sccc1=O", "inactive"),
]

Param item = CC[C@]12CCCN3CCc4c(n(c5ccccc45)[C@@](O)(C(=O)OC)C1)[C@@H]32 ; retrieve measured activity change, negative = inhibition. inactive

Same for C1COCCO1 inactive

Same for CC(C)CCOCCC(C)C inactive

---

Experiment: cAMP Responsive Elements (CRE) small molecule antagonists, cell-based qHTS assay (AID 1963591); further: on the % scale 0 is the no-effect control and ±100 the full control effect
Details: CRE-bla HEK293T, beta-lactamase FRET ratio; series mostly up to 92.4 µM
Results filed as inconclusive are left out. Active and inactive are the calls of the source. Calls follow the shape of the dose curve; as a rule, active = well fitted inhibition curve with a large enough effect in the signal ratio in the repeat runs (not every such curve was filed as active); inconclusive = weak or mixed curves, or effect the other way; inactive = flat fitted curve, though single readings scatter; the % refers to the signal ratio.
Observed Property: activity change, negative = inhibition

These recorded examples may help you get a feel for the data.
# Compound, Observed Property, Result
records = [
    ("CCC(=O)Nc1cccc(N)c1", "activity change, negative = inhibition", "inactive"),
    ("CCCc1ccc(O)cc1", "activity change, negative = inhibition", "inactive"),
    ("CC(COCC(C)OC(=O)c1ccccc1)OC(=O)c1ccccc1 (configuration not stated)", "activity change, negative = inhibition", "inactive"),
    ("NC(=Nc1ccccc1)Nc1ccccc1", "activity change, negative = inhibition", "inactive"),
    ("CCCCCCCCCCCC[N+](C)(C)CCCS(=O)(=O)[O-]", "activity change, negative = inhibition", "inactive"),
    ("COCCCOc1cc(C[C@@H](C[C@H](N)[C@@H](O)C[C@H](C(=O)NCC(C)(C)C(N)=O)C(C)C)C(C)C)ccc1OC", "activity change, negative = inhibition", "inactive"),
]

Moving on to the next compound.
Param item = CCO[Si](C)(C)OCC ; retrieve measured activity change, negative = inhibition. inactive

---

Assay: Nuclear factor erythroid 2-related factor 2/antioxidant responsive element (Nrf2/ARE) small molecule agonists: luciferase reporter gene qHTS assay in human keratinocytes (AID 1919969); further: on the % scale 0 is the no-effect control and ±100 the full control effect; nearly all actives have a fitted effect of over 35% in size
Conditions: KeratinoSens HaCaT ARE-luciferase, luminescence, 24 h; series mostly up to 92.4 µM
Inconclusive results are not listed. The source made the active and inactive calls. Calls come from the whole dose curve.
Outcomes you can answer with include only these: yes (1) = active, no (0) = inactive

Which outcome was entered for the compound N#CCN(CC#N)CCN(CC#N)CC#N in this test? no (0)

Same for C[Si](C)O[Si](C)C no (0)

Same for C=C(C)C(=O)NCCC[N+](C)(C)C no (0)

Same for O=C(NCN1CCOCC1)c1cnccn1 no (0)
